Assay: Kinetic Turbidimetric Aqueous Solubility at room temperature for 5 min
Type: physicochemical
Settings: PBS buffer, kinetic from dmso stock, 2% DMSO

COMPOUND	solubility at 5 min
COC(=O)c1ccc(Oc2ccc3[nH]c(CSc4ccnc(C(F)(F)F)c4)nc3c2)cc1 [Compound 179]	> 10 µM
COc1ccc(-c2ncc(CSc3cc(N)nc(C(F)(F)F)n3)s2)cc1Cl [Compound 069]	> 25 µM
CC(C)Oc1ccc(-n2cc(CNc3ccnc(C(F)(F)F)c3)nn2)cc1 [Compound 035]	≥ 100 µM
Fc1ccc(Oc2ccc3[nH]c(CNc4ccnc(C(F)(F)F)c4)nc3c2)cc1 [Compound 172]	> 25 µM
FC(F)(F)c1cc(NCc2nc3cc(Cl)c(Cl)cc3[nH]2)ccn1 [Compound 121]	≥ 100 µM
FC(F)(F)c1cc(NCc2nnc(-c3ccc(Oc4ccccc4)cc3)[nH]2)ccn1 [Compound 095]	> 25 µM
FC(F)(F)Oc1ccc(-n2cc(CNc3ccnc(C(F)(F)F)c3)nn2)cc1Cl [Compound 022]	> 25 µM
FC(F)(F)c1cc(NCc2cn(-c3ccc(-n4ccc5ccccc54)cc3)nn2)ccn1 [Compound 040]	> 25 µM
CC(C)Oc1ccc(-c2nc(CNc3ccnc(C(F)(F)F)c3)cs2)cc1 [Compound 087]	> 10 µM
Oc1cc(NCc2cn(-c3ccc(Oc4ccccc4)cc3)nn2)cc(C(F)(F)F)n1 [Compound 050]	≥ 100 µM
FC(F)(F)c1cc(NCc2cn(-c3ccc(Br)cc3)nn2)ccn1 [Compound 039]	> 50 µM
FC(F)(F)c1cc(NCc2cnc(-c3ccc(Oc4ccccc4)cc3)nc2)ccn1 [Compound 105]	> 10 µM
CC(C)Oc1ccc(-c2ncc(CNc3cc(Cl)nc(C(F)(F)F)c3)s2)cc1 [Compound 161]	> 25 µM
Fc1cccc(Oc2ccc(-n3cc(CNc4ccnc(C(F)(F)F)c4)nn3)cc2)c1 [Compound 145]	> 25 µM
FC(F)(F)c1cc(NCc2cn(-c3ccc(Oc4cccnc4)cc3)nn2)ccn1 [Compound 033]	> 25 µM
FC(F)(F)c1cc(NCc2cn(-c3ccc(OC4CCC4)c(Cl)c3)nn2)ccn1 [Compound 047]	> 25 µM
Nc1cc(SCc2nc3cc(Oc4cccnc4)ccc3[nH]2)nc(C(F)(F)F)n1 [Compound 174]	≥ 100 µM

----------
Here, each record is paired with measured solubility at 5 min data.
Test: Kinetic Turbidimetric Aqueous Solubility at room temperature for 5 min
Format: physicochemical
Settings: PBS buffer, kinetic from dmso stock, 2% DMSO
OBSERVABLE: solubility at 5 min

MOLECULE	OBSERVABLE	RESULT
FC(F)(F)c1cc(NCc2cn(-c3ccc(OC4CCOC4)c(Cl)c3)nn2)ccn1 (centres unmarked)	solubility at 5 min	> 25 µM
Cc1cccc(Oc2ccc3[nH]c(CSc4cc(N)nc(C(F)(F)F)n4)nc3c2)c1	solubility at 5 min	> 25 µM
FC(F)(F)c1cc(NCc2cn(-c3ccc(-n4ccc5ccncc54)cc3)nn2)ccn1	solubility at 5 min	> 25 µM
Nc1cc(SCc2cnc(-c3ccc(Oc4ccccc4)cc3)s2)nc(C(F)(F)F)n1	solubility at 5 min	> 10 µM
CC(C)Oc1ccc(-n2cc(CNc3ccnc([N+](=O)[O-])c3)nn2)cc1Cl	solubility at 5 min	> 10 µM
Nc1cc(OCc2nc3cc(Oc4ccccc4)ccc3[nH]2)nc(C(F)(F)F)n1	solubility at 5 min	> 50 µM
Nc1cc(SCc2nc3cc(Oc4ccccc4)ccc3[nH]2)nc(C(F)(F)F)n1	solubility at 5 min	> 25 µM
CSc1ccc(-n2cc(CNc3ccnc(C(F)(F)F)c3)nn2)cc1Cl	solubility at 5 min	> 25 µM
Nc1cc(SCc2nc3cc(Oc4ccccc4)ccc3[nH]2)cc(C(F)(F)F)n1	solubility at 5 min	> 25 µM
FC(F)(F)c1cc(NCc2cn(-c3ccc(OC4CC4)c(Cl)c3)nn2)ccn1	solubility at 5 min	> 10 µM
COc1ncc(-c2nc(CNc3ccnc(C(F)(F)F)c3)cs2)cc1Cl	solubility at 5 min	> 25 µM
CC(C)Oc1ccc(-n2cc(CNc3ccnc(C(F)(F)F)c3)nn2)cc1Cl	solubility at 5 min	> 25 µM
CC(C)Oc1ccc(-c2ncc(CNc3cc(Cl)nc(C(F)(F)F)c3)cn2)cc1Cl	solubility at 5 min	> 25 µM
FC(F)(F)c1cc(NCc2ccc(-c3ccc(Oc4ccccc4)cc3)cn2)ccn1	solubility at 5 min	> 10 µM
FC(F)(F)c1cc(SCc2cn(-c3cccc(Cl)c3)nn2)ccn1	solubility at 5 min	> 25 µM
FC(F)(F)c1cc(NCc2cn(-c3ccc(-n4cnc5ccccc54)cc3)nn2)ccn1	solubility at 5 min	> 25 µM
FC(F)(F)c1cc(NCc2cc(-c3ccc(Oc4ccccc4)cc3)n[nH]2)ccn1	solubility at 5 min	> 10 µM
